Numbers sourced from ChEMBL document CHEMBL1961873.

# STUDY SYSTEM: Macrophage colony-stimulating factor 1 receptor (Homo sapiens);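 further: mean inhibition of FMS, from the GSK PKIS screening set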
# CONDITION SET: at 1 µM
OBSERVED PROPERTY: inhibition
The answer should read as a number with its unit following.

SMILES STR | inhibition
COc1cc(Nc2ncc3c(C)nc(-c4cccc(C(F)(F)F)c4)n3n2)cc(OC)c1OC | 79.8%
Fc1ccc(-c2c(-c3ccncc3)nc3n2CCS3)cc1 | 1.37%
CN1CCN(CCCNc2nc3ccc(Oc4ccc(NC(=O)Nc5cc(C(F)(F)F)ccc5F)cc4)cc3[nH]2)CC1 | 17.3%

Next item in the queue.
Reported inhibition ( O=C(Nc1n[nH]c2nc(-c3ccc(O)cc3)c(Br)cc12)C1CC1 ) = 6.92%

* * *

Readings of inhibition for the listed molecules
# STUDY SYSTEM: 5'-AMP-activated protein kinase catalytic subunit alpha-2 (Homo sapiens);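 further: mean inhibition measured on the AMPK complex of alpha2, beta1 and gamma1 subunits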
# CONDITION SET: at 0.1 µM
# Description: GSK_PKIS: AMPKA2 (A2B1G1) mean inhibition at 0.1 uM [Nanosyn]
# unit: % | format: bare number

Please review the following examples before continuing.
SMILES STR | VALUE UNIT | inhibition
NS(=O)(=O)c1ccc(N/N=C2\C(=O)Nc3ccc(-c4cnco4)cc32)cc1 | % | 5.38
COC(=O)Nc1nc2ccc(Sc3ccc(NC(=O)Nc4cc(C(F)(F)F)ccc4F)cc3)cc2[nH]1 | % | -4.11
Fc1ccc(-c2ncn(C3CCNCC3)c2-c2ccnc(Oc3ccc(Oc4ccccc4)cc3)n2)cc1 | % | 8.18
COc1cc(Nc2ncc3c(C)nc(-c4cccc(C(F)(F)F)c4)n3n2)cc(OC)c1OC | % | 5.38
Fc1ccc(-c2ncn(C3CCNCC3)c2-c2ccnc(Oc3ccc4c(c3)OCO4)n2)cc1 | % | 3.86

Reported inhibition ( c1ccc(Oc2ccc(Nc3ncc(-c4ccccc4)o3)cc2)cc1 ) = 1.31

Reported inhibition ( NS(=O)(=O)c1ccc(Nc2cc(-c3ccc(O)c(F)c3)n[nH]2)cc1 ) = 0.54

Reported inhibition ( COc1ccc(-c2ccc3c(NC(=O)C4CC4)n[nH]c3n2)cc1 ) = 0.53

* * *

# STUDY SYSTEM: Tyrosine-protein kinase Srms (Homo sapiens) (UniProt Q9H3Y6)
# Sequence (Q9H3Y6 whole entry): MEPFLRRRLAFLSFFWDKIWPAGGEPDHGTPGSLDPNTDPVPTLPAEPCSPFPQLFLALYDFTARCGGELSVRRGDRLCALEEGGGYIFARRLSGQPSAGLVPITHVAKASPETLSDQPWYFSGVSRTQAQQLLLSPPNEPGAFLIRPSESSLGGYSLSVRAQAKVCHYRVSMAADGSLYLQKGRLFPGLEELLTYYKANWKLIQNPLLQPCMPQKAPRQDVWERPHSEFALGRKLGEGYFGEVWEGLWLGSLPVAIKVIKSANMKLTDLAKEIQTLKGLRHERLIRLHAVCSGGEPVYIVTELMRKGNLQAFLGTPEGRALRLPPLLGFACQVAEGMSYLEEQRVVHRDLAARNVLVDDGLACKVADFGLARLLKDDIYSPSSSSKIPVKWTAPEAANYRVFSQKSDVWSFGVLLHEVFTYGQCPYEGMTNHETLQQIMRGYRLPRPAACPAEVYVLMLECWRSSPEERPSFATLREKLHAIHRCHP
# CONDITION SET: at 1 µM
# Description: GSK_PKIS: SRMS mean inhibition at 1 uM [Nanosyn]
Readings of inhibition for the listed compounds
# unit: % | format: bare number

Please review the following examples before continuing.
COMPOUND | inhibition [%]
NC(=O)c1cc(-c2ccc(F)cc2)cc(-c2ccncc2)c1N | -1.13
CCc1nccc2c1nc(-c1nonc1N)n2CC | -3.49
COC(=O)Nc1nc2ccc(Sc3ccc(NC(=O)Nc4cc(C(F)(F)F)ccc4F)cc3)cc2[nH]1 | -0.15
CCN(CC)Cc1ccc(Nc2nccc(-c3cnn4ncccc34)n2)cc1 | 0.74

Reported inhibition ( O=C(Nc1n[nH]c2cc(-c3ccccc3)ccc12)C1CC1 ) = 3.11

Reported inhibition ( O=C(Nc1n[nH]c2nc(-c3ccc(O)cc3)c(Br)cc12)C1CC1 ) = 17

Reported inhibition ( COc1ccc2cc(-c3c(-c4ccncc4)nc(-c4ccc([S+](C)[O-])cc4C)n3C)ccc2c1 (stereo not given) ) = 6.78

Reported inhibition ( CS(=O)(=O)CCNCc1cc(-c2cc3c(Nc4ccc(OCc5cccc(F)c5)c(Cl)c4)ncnc3s2)cs1 ) = -1.03

Reported inhibition ( CNC(=O)c1cncc(/C=C/c2c(C)cccc2C)c1 ) = 9.33

Reported inhibition ( COc1ccc(C2=C(N3CCc4ccccc43)C(=O)NC2=O)cc1 ) = 14.7

Reported inhibition ( CCS(=O)(=O)c1ccc(OC)c(Nc2ncc(-c3cccc(-c4ccccc4F)c3)o2)c1 ) = 30.3

Reported inhibition ( NC(=O)c1cc(-c2ccncc2)cc(-c2ccccc2)c1N ) = 5.81
